biological target: Human immunodeficiency virus type 1 reverse transcriptase (Human immunodeficiency virus 1) (UniProt Q72547); test: In vitro inhibitory activity against human immunodeficiency virus type 1 (HIV-1) reverse transcriptase (RT) at a concentration of 10 ug/mL.
REPORTED PROPERTY: inhibition (%)
Numbers only, in %.

Answered examples (3):
[[record]]
smiles_input = "O=C1Nc2c(CO)ccnc2N(C2CC2)c2ncccc21"
reported_property = "inhibition"
unit_tag = "%"
observed = 94

[[record]]
smiles_input = "CN1C(=O)c2cccnc2N(C2CCCCC2)c2ncccc21"
reported_property = "inhibition"
unit_tag = "%"
observed = 73

[[record]]
smiles_input = "CN1C(=O)c2cccnc2N(C)c2ccccc21"
reported_property = "inhibition"
unit_tag = "%"
observed = 85


State the recorded inhibition for every item in the following list.
1. CN1C(=O)c2cccnc2N(CCF)c2ncccc21
2. Cc1ccnc2c1NC(=O)c1c(O)ccnc1N2C1CC1
3. O=C1Nc2cccnc2N(C2CCCC2)c2ncccc21
4. CCN1c2ccc(C(=O)OC)cc2N(C)C(=O)c2cccnc21
5. O=C1Nc2cccnc2Nc2ccccc21
6. CCN1c2ccc(Cl)cc2N(C)C(=O)c2cccnc21
7. CCN1c2ncccc2C(=O)Nc2c(OC)ccnc21
8. CN1C(=O)c2cccnc2N(CC(=O)O)c2ccccc21

Response:
[96, 96, 94, 94, 23, 99, 96, 60]

State the recorded inhibition for every item in the following list.
1. N#Cc1ccnc2c1NC(=O)c1cccnc1N2C1CC1
2. CCN1c2ccc(C(=O)O)cc2N(C)C(=O)c2cccnc21
3. CCN1c2cc(C)c(C)cc2N(C)C(=O)c2cccnc21
4. O=C1Nc2cccnc2N(c2ccccc2)c2ncccc21

Response:
[96, 18, 100, 71]

----------
biological target: Human immunodeficiency virus type 1 reverse transcriptase (Human immunodeficiency virus 1) (UniProt Q72547); assay: In vitro inhibitory activity against human immunodeficiency virus type 1 (HIV-1) reverse transcriptase (RT) at a concentration of 10 ug/mL.
REPORTED PROPERTY: inhibition (%)
Give bare numbers, in %.

[[record]]
smiles_input = "CCN1c2ccc(C)cc2C(=O)N(C)c2cccnc21"
reported_property = "inhibition"
unit_tag = "%"
observed = 99


State the recorded inhibition for every item in the following list.
1. CCN1c2cccc(C)c2N(C)C(=O)c2cccnc21
2. CCCCN1c2ccccc2N(C)C(=O)c2cccnc21

Response:
[100, 81]

----------
target: Human immunodeficiency virus type 1 reverse transcriptase (Human immunodeficiency virus 1) (UniProt Q72547); assay: In vitro inhibitory activity against human immunodeficiency virus type 1 (HIV-1) reverse transcriptase (RT) at a concentration of 10 ug/mL.
Please go through the items and note down their inhibition.
Give bare numbers, in %.

Answered examples (4):
[[record]]
smiles_input = "C#CN1c2ccccc2N(C)C(=O)c2cccnc21"
observed = 97

[[record]]
smiles_input = "CCN1c2ccccc2C(=O)N(C)c2ccccc21"
observed = 80

[[record]]
smiles_input = "CN1C(=O)c2cccnc2Nc2ccccc21"
observed = 43

[[record]]
smiles_input = "CCN1C(=O)c2cccnc2Nc2ccccc21"
observed = 87


State the recorded inhibition for every item in the following list.
1. CCN1c2ncccc2C(=O)N(C)c2cc(N)cnc21
2. CN1C(=O)c2ccccc2N(C)c2ncccc21

Response:
[92, 74]

----------
Please go through the items and note down their inhibition.
molecular target: Human immunodeficiency virus type 1 reverse transcriptase (Human immunodeficiency virus 1) (UniProt Q72547); experiment: In vitro inhibitory activity against human immunodeficiency virus type 1 (HIV-1) reverse transcriptase (RT) at a concentration of 10 ug/mL.
One number for each entry, in %.

Answered examples (5):
[[record]]
smiles_input = "CSCN1c2ccccc2N(C)C(=O)c2cccnc21"
observed = 84

[[record]]
smiles_input = "CCN1C(=O)c2cccnc2N(C)c2ccccc21"
observed = 84

[[record]]
smiles_input = "CC(C)N1c2ccccc2N(C)C(=O)c2cccnc21"
observed = 98

[[record]]
smiles_input = "CCN1c2ncccc2NC(=O)c2c(C)ccnc21"
observed = 80

[[record]]
smiles_input = "CCN1c2cc(NC(C)=O)ccc2N(C)C(=O)c2cccnc21"
observed = 49


State the recorded inhibition for every item in the following list.
1. CCN1c2cc([N+](=O)[O-])ccc2N(C)C(=O)c2cc(Br)cnc21
2. CCN1c2ccccc2N(CF)C(=O)c2cccnc21
3. CCN1c2ccc(C(N)=O)cc2N(C)C(=O)c2cccnc21
4. CCN1c2ccc(CN)cc2N(C)C(=O)c2cccnc21
5. CCN1c2cc(N=[N+]=[N-])ccc2N(C)C(=O)c2cccnc21
6. CCN1c2cc(C(=O)c3ccccc3)ccc2N(C)C(=O)c2cccnc21
7. Cc1cccc2c1NC(=O)c1cccnc1N2

Response:
1: 95; 2: 85; 3: 66; 4: 84; 5: 100; 6: 73; 7: 77

Memo: `CCN1C(=O)c2cccnc2N(CC)c2cccc(C)c21` , reported inhibition: 90
